# TARGET_UNDER_TEST: KRASG12D (Homo sapiens, UniProt P01116, G12D)
# Sequence (P01116 1-188 isoform P01116-2 G12D): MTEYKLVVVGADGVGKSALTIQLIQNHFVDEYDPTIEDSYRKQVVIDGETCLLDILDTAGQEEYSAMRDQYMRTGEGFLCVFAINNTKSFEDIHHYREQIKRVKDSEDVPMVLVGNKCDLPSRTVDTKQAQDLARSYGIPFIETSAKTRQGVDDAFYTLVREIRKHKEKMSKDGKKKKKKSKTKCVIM
# PROCEDURE_SUMMARY: Bio-Biochem-PPI-HTRF Ras-SOS1 interaction assay (KRAS G12D)
# TEST_SETTINGS: 5 nM
The following molecules are shown together with reported IC50 values.

molecule="N#Cc1c(N)sc2c(F)ccc(-c3c(Cl)cc4c(N5CCCCC6(CN(C(=O)N7CC(C(F)F)C7)C6)C5)nc(OC[C@@]56CCCN5C[C@H](F)C6)nc4c3F)c12 [compound 196]" target_under_test="KRASG12D (Homo sapiens, UniProt P01116, G12D)" result="< 5 µM"
molecule="N#Cc1c(N)sc2c(F)ccc(-c3c(Cl)cc4c(N5CCCCC6(CN(C(=O)C7CCC7C#N)C6)C5)nc(OC[C@@]56CCCN5C[C@H](F)C6)nc4c3F)c12 (some centres unmarked)" target_under_test="KRASG12D (Homo sapiens, UniProt P01116, G12D)" result="< 5 µM"
molecule=CC1(C)CN(c2nc(OC[C@@]34CCCN3C[C@H](F)C4)nc3c(F)c(-c4ccc(F)c5sc(N)nc45)c(Cl)cc23)CC2(CN(C#N)C2)O1 target_under_test="KRASG12D (Homo sapiens, UniProt P01116, G12D)" result="≥ 5 µM"

Task: # return IC50 for N#Cc1c(N)sc2c(F)ccc(-c3c(Cl)cc4c(N5CC(F)CCC6(CN(C(=O)[C@@H]7CC7(F)F)C6)C5)nc(OC[C@@]56CCCN5C[C@H](F)C6)nc4c3F)c12 (some centres unmarked) , test system: KRASG12D (Homo sapiens, UniProt P01116, G12D)
Result: < 5 µM

Task: Look up and report IC50, with KRASG12D (Homo sapiens, UniProt P01116, G12D) as system, for `N#Cc1c(N)sc2c(F)ccc(-c3c(Cl)cc4c(N5CCOC6(CNC6)C5)nc(OC[C@@]56CCCN5C[C@H](F)C6)nc4c3F)c12`
Result: < 5 µM

###

# TARGET_UNDER_TEST: KRASG12D (Homo sapiens, UniProt P01116, G12D)
# PROCEDURE_SUMMARY: Bio-Biochem-PPI-HTRF Ras-SOS1 interaction assay (KRAS G12D)
# TEST_SETTINGS: 5 nM
RECORDED_ENDPOINT: IC50

These recorded examples may help you get a feel for the data.
compound="CC1(C)CN(c2nc(OC[C@@]34CCCN3C[C@H](F)C4)nc3c(F)c(-c4ccc(F)c5sc(N)nc45)c(Cl)cc23)CC2(CNC2)O1 [compound 166]" target_under_test="KRASG12D (Homo sapiens, UniProt P01116, G12D)" result="< 5 µM"
compound="C[C@@H](O)C(=O)N1CC2(CCCCN(c3nc(OC[C@@]45CCCN4C[C@H](F)C5)nc4c(F)c(-c5ccc(F)c6sc(N)c(C#N)c56)c(Cl)cc34)C2)C1 [compound 243]" target_under_test="KRASG12D (Homo sapiens, UniProt P01116, G12D)" result="< 5 µM"

Task: State, in one line, measured IC50 of N#Cc1c(N)sc2c(F)ccc(-c3c(Cl)cc4c(N5CCCCC6(CN(C(=O)C7(F)CC7)C6)C5)nc(OC[C@@]56CCCN5C[C@H](F)C6)nc4c3F)c12 [compound 253]
Result: < 5 µM

###

# TARGET_UNDER_TEST: KRASG12D (Homo sapiens, UniProt P01116, G12D)
# PROCEDURE_SUMMARY: Bio-Biochem-PPI-HTRF Ras-SOS1 interaction assay (KRAS G12D)
# TEST_SETTINGS: 5 nM
pIC50: −log10 of the molar value.
RECORDED_ENDPOINT: pIC50

Sample records with pIC50:
molecule="C#Cc1c(F)ccc2cc(O)cc(-c3ncc4c(N5CCCCC6(CN(C(=O)[C@H]7CC7(F)F)C6)C5)nc(OC[C@@]56CCCN5C[C@H](F)C6)nc4c3F)c12 [compound 215]" recorded_endpoint=pIC50 result="> 5.30"
molecule="CN(C(=O)N1CC2(CCCCN(c3nc(OC[C@@]45CCCN4C[C@H](F)C5)nc4c(F)c(-c5ccc(F)c6sc(N)c(C#N)c56)c(Cl)cc34)C2)C1)C1CC1 [compound 234]" recorded_endpoint=pIC50 result="> 5.30"

Task: State its pIC50: N#Cc1c(N)sc2c(F)ccc(-c3c(F)c4nc(OC[C@@]56CCCN5C[C@H](F)C6)nc(N5CCCCC6(CN(C(=O)C7CC7(F)F)C6)C5)c4c(=O)n3C3CC3)c12 (some centres unmarked) [compound 246]
Result: > 5.30

Task: Supply reported pIC50 belonging to this molecule: N#Cc1c(N)sc2c(F)ccc(-c3c(Cl)cc4c(N5CCC6(CCN(C(=O)C7CC7(F)F)C6)CC5)nc(OC[C@@]56CCCN5C[C@H](F)C6)nc4c3F)c12 (some centres unmarked) [compound 349]
Result: > 5.30

###

# TARGET_UNDER_TEST: KRASwt (Homo sapiens, UniProt P01116)
# Sequence (P01116 1-188 isoform P01116-2): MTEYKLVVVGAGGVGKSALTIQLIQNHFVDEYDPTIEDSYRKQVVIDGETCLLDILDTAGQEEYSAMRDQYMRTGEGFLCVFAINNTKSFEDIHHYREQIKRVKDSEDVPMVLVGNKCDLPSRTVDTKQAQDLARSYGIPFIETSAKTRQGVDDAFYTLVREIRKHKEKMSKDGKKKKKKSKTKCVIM
# PROCEDURE_SUMMARY: Bio-Biochem-PPI-HTRF Ras-SOS1 interaction assay (KRAS wt)
# TEST_SETTINGS: 5 nM
Each entry below carries its reported IC50.

Reference set (2 entries):
structure_as_smiles=C#Cc1c(F)ccc2cc(O)cc(-c3ncc4c(N5CCOCC6(CN(C(=O)[C@@H]7CC7(F)F)C6)C5)nc(OC[C@@]56CCCN5C[C@H](F)C6)nc4c3F)c12 target_under_test="KRASwt (Homo sapiens, UniProt P01116)" result="< 5 µM"
structure_as_smiles=N#Cc1c(N)sc2c(F)ccc(-c3c(Cl)cc4c(N5CCCCC6(CN(C(=O)C(F)(F)F)C6)C5)nc(OC[C@@]56CCCN5C[C@H](F)C6)nc4c3F)c12 target_under_test="KRASwt (Homo sapiens, UniProt P01116)" result="< 5 µM"

The record that follows has no IC50 shown yet.
Task: Please supply the value of reported IC50 for the item `N#Cc1c(N)sc2c(F)ccc(-c3c(Cl)cc4c(N5CCOCC6(CN(C(=O)[C@@H]7CC7(F)F)C6)C5)nc(OC[C@@]56CCCN5C[C@H](F)C6)nc4c3F)c12`
Result: < 5 µM

###

# TARGET_UNDER_TEST: UniProtKB P01116
# PROCEDURE_SUMMARY: Bio-Biochem-PPI-HTRF Ras-SOS1 interaction assay (KRAS wt)
# TEST_SETTINGS: 5 nM
pIC50: −log10 of the molar value.
RECORDED_ENDPOINT: pIC50

The examples below pair each entry with its known result.
compound="N#Cc1c(N)sc2c(F)ccc(-c3c(Cl)cc4c(N5CCC6(CN(C(=O)C7CC7(F)F)C6)C5)nc(OC[C@@]56CCCN5C[C@H](F)C6)nc4c3F)c12 (some centres unmarked) [compound 143]" result="> 5.30"
compound="C#Cc1c(F)ccc2cc(O)cc(-c3ncc4c(N5CCOCC6(CN(C(=O)[C@H]7CC7(F)F)C6)C5)nc(OC[C@@]56CCCN5C[C@H](F)C6)nc4c3F)c12 [compound 316]" result="> 5.30"
compound="N#Cc1c(N)sc2c(F)ccc(-c3c(Cl)cc4c(N5CCCCC6(CN(C(=O)C7CCOCC7)C6)C5)nc(OC[C@@]56CCCN5C[C@H](F)C6)nc4c3F)c12 [compound 300]" result="> 5.30"
compound="N#Cc1c(N)sc2c(F)ccc(-c3c(Cl)cc4c(N5CCCCC6(CN(C(=O)/C=C/C(F)(F)F)C6)C5)nc(OC[C@@]56CCCN5C[C@H](F)C6)nc4c3F)c12 [compound 207]" result="> 5.30"
compound="N#Cc1c(N)sc2c(F)ccc(-c3c(Cl)cc4c(N5CCCC6(CN(C(=O)C(F)F)C6)C5)nc(OC[C@@]56CCCN5C[C@H](F)C6)nc4c3F)c12 [compound 125]" result="> 5.30"

Task: Look up pIC50 of N#Cc1c(N)sc2c(F)ccc(-c3c(Cl)cc4c(N5CCCCC6(CN(C(=O)CCC(F)F)C6)C5)nc(OC[C@@]56CCCN5C[C@H](F)C6)nc4c3F)c12 [compound 337] and report it.
Result: > 5.30

Task: Give me measured pIC50, please, for this compound: N#Cc1c(N)sc2c(F)ccc(-c3c(Cl)cc4c(N5CCCCC6(CN(C(=O)C7CCC7C#N)C6)C5)nc(OC[C@@]56CCCN5C[C@H](F)C6)nc4c3F)c12 (some centres unmarked) [compound 345]
Result: > 5.30

Task: Look up pIC50 of N#Cc1c(N)sc2c(F)ccc(-c3c(Cl)cc4c(N5CCCC6(CN(C=O)C6)C5)nc(OC[C@@]56CCCN5C[C@H](F)C6)nc4c3F)c12 [compound 173] and report it.
Result: > 5.30

Task: State its pIC50: N#Cc1c(N)sc2c(F)ccc(-c3c(Cl)cc4c(N5CCOC6(CN(C(=O)C7(C(F)F)COC7)C6)C5)nc(OC[C@@]56CCCN5C[C@H](F)C6)nc4c3F)c12 [compound 252]
Result: > 5.30

Task: Please list pIC50 recorded for the compound C[C@H](Oc1nc(N2CCOC3(CNC3)C2)c2cc(Cl)c(-c3ccc(F)c4sc(N)c(C#N)c34)c(F)c2n1)[C@@H]1CCCN1C [compound 110]
Result: > 5.30

Task: Given the compound C[C@H](Oc1nc(N2CCOC3(CNC3)C2)c2cc(Cl)c(-c3ccc(F)c4sc(N)c(C#N)c34)c(F)c2n1)[C@@H]1CCCN1C (single isomer, unassigned; atropisomer 1) [compound 128] , write its reported pIC50.
Result: > 5.30
